# Test Description: Cytotoxicity against human EKVX cells
# Assay type: functional
// boundary case: GI50 equal to 4 µM maps to no (0); strictly smaller maps to yes (1)

Lab note: GI50 threshold 4 µM. Does this compound come in strictly under it? COc1cc(/C=C/c2cc(O)c3ccn(C)c3c2)cc2c1O[C@]1(C)CC[C@@H](O)C(C)(C)[C@H]1C2
no (0)

API: query returns whether the compound falls strictly under 4 µM in GI50. Query: COc1cc(/C=C/c2cc(OC)c3cc[nH]c3c2)cc2c1O[C@]1(C)CC[C@@H](O)C(C)(C)[C@H]1C2
yes (1)

Does this compound meet the criterion GI50 < 4 µM? COc1cc(/C=C/c2cc(O)c3cc[nH]c3c2)cc2c1O[C@]1(C)CC[C@@H](O)C(C)(C)[C@H]1C2
yes (1)

Below 4 µM on GI50? Entry COc1cc(/C=C/c2cc(O)c3c(CC=C(C)C)c[nH]c3c2)cc2c1O[C@]1(C)CC[C@@H](O)C(C)(C)[C@H]1C2
yes (1)
